These entries and their values trace back to the DeepSol protein solubility set.

assayMethodText: soluble on expression in E. coli; label from the status in PepcDB or PDB records
readoutKind: soluble on expression in E. coli

sequenceString	result
MMAKKPPKPAPRRIFQERLKITALPLYFEGFLLIKRSGYREYEHYWTELRGTTLFFYTDKKSIIYVDKLDIVDLTCLTEQNSTEKNCAKFTLVLPKEEVQLKTENTESGEEWRGFILTVTELSVPQNVSLLPGQVIKLHEVLEREKKRRIETEQSTSVEKEKEPTEDYVDVLNPMPACFYTVSRKEATEMLQKNPSLGNMILRPGSDSRNYSITIRQEIDIPRIKHYKVMSVGQNYTIELEKPVTLPNLFSVIDYFVKETRGNLRPFICSTDENTGQEPSMEGRSEKLKKNPHIA	soluble
MSTIPSEIINWTILNEIISMDDDDSDFSKGLIIQFIDQAQTTFAQMQRQLDGEKNLTELDNLGHFLKGSSAALGLQRIAWVCERIQNLGRKMEHFFPNKTELVNTLSDKSIINGINIDEDDEEIKIQVDDKDENSIYLILIAKALNQSRLEFKLARIELSKYYNTNLH	soluble

---

assayMethodText: soluble on expression in E. coli; label from the status in PepcDB or PDB records

sequenceString	soluble on expression in E. coli
MAHHHHHHSAARRRASGENLQQTRPIAAANLQWESYAEALEHSKQDHKPIGLFFTGSDWCMWCIKMQDQILQSSEFKHFAGVHLHMVEVDFPQKNHQPEEQRQKNQELKAQYKVTGFPELVFIDAEGKQLARMGFEPGGGAAYVSKVKSALKLR	soluble
MVLSVADAKKLTVPRLKEELASRGLDNTGNKPELLARLTESIEQAADELLGDAGITSDTHLLSDDILNDDILDAPSVGDESEADKLLGSVDGAEEHKTDKSEGEEKHEVHLIDKKIDEVTAETDKRARAIRFGLPVTAEDLGSDGAKAARAKRFDLPEDSKRLTSNDAKASRAERFGITPKTPAADDKLAARAARFGIPVGGAASASASKNAPNSEGKAAKLAARAKRFGGEIDDEEMEAKKKARMERFGTSN	not soluble
MEVDCRVISRGKGRGPVLVSTEPLSFLGGVDPGTGRVIDQKHPLHGRSIRGKVLLIPGGKGSTVGSYVIFQMAKNETAPAAIICLNAEPIIATGAIMAGIPMVDRPSEDLLGLLEDSMEVEVDADEGKIRF	soluble
YQNYGIMAAIDHINALKDLVKRFPKFADLPKIYGGGSYGGYLSLLIAKIAPWYVDGVIDNSGVCLPFLACILGREMNQGEFYFEGSGYRLYCFVYKYWNRNMNSSYYFGDENYLIRAVLNSNHLQIQSNLNKNTIFVSYHSIQDMGAPVQNKIELYKCYQELGYDATLHLIKDEN	not soluble

---

assayMethodText: soluble on expression in E. coli; label from the status in PepcDB or PDB records

sequenceString	soluble on expression in E. coli
MSLSGNYLPRNTLVESLGHAMLKLSGWKIEGQLPALDKFVVIGAHHTSNWDFVAFLAAKFVLRLNARWFGKHTLFNGPLGGLMRRWGGIPIQRHLKLNTVDQAIQAFREHREFMLIIAPEGTRKKVDRWRMGFYHIARGAGVPVVPAALDYENRRIVIGEPFWPTGNEDADLCSLIGFYRPFIPKKPHYAFLGDEGHHHHHH	soluble
MIARLAIAALLVSSSLACLPGLGGLGGGCGGAAASPCAAPPMPPPVSCGGGCGAAPYPAGPMAAPYFAPAAIAPPPPPQGAVIGVGAQPAVYSAPLPAGNAYVGQGK	not soluble
MGSDKIHHHHHHMGIRNSKTFTSTDIATYYDVSEDHYMYFWDLNQSHSLHYGYWDASTKTFREALANINRVLAEKASITAGTRVLDAGCGVGGSSIWLAKNKQANVTGITVSKKQAARANTSAAAVNPGGTAVFDVQDYTNTPYHSESFDVVWAIESVCHAANKEDFIKEAYRLLKPGGQLIMADFFIVKDGNADDQRSIDAWGHGWAVPFFEKKDAFQHMLLKAGFNTADMIDSTEHIRRSAKRLYYAFFPGWIISKLYNLVNRRTTEFSKNNVYTAYYQYKTLKKELWKYYIVHAKK	not soluble
MSIVMQLQDVAESTRLGPLSGEVRAGEILHLVGPNGAGKSTLLARMAGMTSGKGSIQFAGQPLEAWSATKLALHRAYLSQQQTPPFATPVWHYLTLHQHDKTRTELLNDVAGALALDDKLGRSTNQLSGGEWQRVRLAAVVLQITPQANPAGQLLLLDEPMNSLDVAQQSALDKILSALSQQGLAIVMSSHDLNHTLRHAHRAWLLKGGKMLASGRREEVLTPPNLAQAYGMNFRRLDIEGHRMLISTI	soluble

---

assayMethodText: soluble on expression in E. coli; label from the status in PepcDB or PDB records
readoutKind: soluble on expression in E. coli

sequenceString	readoutKind	result
MSAFQAFVVNKTETEFTAGVQTISMDDLPEGDVLVRVHYSSVNYKDGLASIPDGKIVKTYPFVPGIDLAGVVVSSQHPRFREGDEVIATGYEIGVTHFGGYSEYARLHGEWLVPLPKGLTLKEAMAIGTAGFTAALSIHRLEEHGLTPERGPVLVTGATGGVGSLAVSMLAKRGYTVEASTGKAAEHDYLRVLGAKEVLAREDVMAERIRPLDKQRWAAAVDPVGGRTLATVLSRMRYGGAVAVSGLTGGAEVPTTVHPFILRGVSLLGIDSVYCPMDLRLRIWERLAGDLKPDLERIAQEISLAELPQALKRILRGELRGRTVVRLA	soluble on expression in E. coli	soluble
MKKLMITQEAGVATVLIKNPPVNILTIDLINELNAFILSLKDDRETKVVVFKSFHEAFFIAHLDLNVINGTSGGQAASIEFNHMIANIKAMKQLSIAVVDGVARGGGNEFVMACDLAYGTENSAFAQPELYINIPTGGQGAVQFARRLGKGKALQALLTGADFTAQQAETLNIITQFVLKAELDVFLAQLLSVIVGWEIRDIVMYKEIIAASIKDEAVGTELELRYFLERAREEKTQTIIAAFLKH	soluble on expression in E. coli	soluble
SGGCTALVAVSLQGKLYMANAGDSRAILVRRDEIRPLSFEFTPETERQRIQQLAFVYPELLAGEFTRLEFPRRLKGDDLGQKVLFRDHHMSGWSYKRVEKSDLKYPLIHGQGRQARLLGTLAVSRGLGDHQLRVLDTNIQLKPFLLSVPQVTVLDVDQLELQEDDVVVMATDGLWDVLSNEQVAWLVRSFLPGNQEDPHRFSKLAQMLIHSTQGKEDSLTEEGQVSYDDVSVFVIPLHSQGQESSDH	soluble on expression in E. coli	soluble
AIAADRTVPHAYPMSMDYEMCTPPRIYDQNFAEALSPKELLAPVLYHGYYIRPRINKQLERGFSQVESEDDWYRVLLDVCQFTPDEISVRTVDNLLEVSARHAQRMDQHGFVSREFTRTYILPMGVDPLLVQVSLSHDGILCIQAPRKTEDLEPQINQLKIKVEKKESTSK	soluble on expression in E. coli	soluble
MSLKRIVVANDLVGVGKVALSASIPLMASCLLEQVLLPTCLLSSHTGGGQNPVKHTTSSILDVFLTDWDNKRIKFDGIFIGYFTTTRDGQKLLEWLSRKQLPLILDPIMADNGKLYQGFSQKHIEIMIKLTQKAELVLPNISEACLLTQTAYLAKNYDEEDIRQVARKLAKLGPKQVVISGISFEEGSIGFAYYQSDSDQLTFHFGKQFPYHFYGTGDIASAIITAGFYYQLPLTQILDLVVSFLEKVLQNTLTLKRDLILGVAYESHLNYLTKSFKKLLEEKNVISKISEGHHHHHH	soluble on expression in E. coli	soluble
SLKVAIFDAFNGASGDMILASLLGVGISEEEIDEVVKALGIDVNYSMTTVSVRGISARRVEVEERDGERSFKEVLEIIRSSNLEEGVKKNAIAVFELIARAEGKVHGRDYREGVFHEVGADDAIFDVVCCVKAFENLKTAGYEFFATPVRAGSGFVEFSHGKYPVPPPAVLEILKSSNLEVVMDGEGELLTPTGAAILSHYCKPLKPFPIRVKEVSYGAGKRETDVPNVLRLILGETAFHDSIVVIETSVDDLSGEMIGYAMKKLLERDDVLDAVIIPAYGKKMRPASILKVISPTHRSEEVAAEVMRLTGSLGIRIIPVHHRLISERMEEVVKVEISGKEFDVRVKRSYPGFRHLKPEFDDIAVIADELNIPPHVVYREIVRKIVGAENADSNGQ	soluble on expression in E. coli	soluble
MKRFDLRPLKAGIFERLEELIEKEMQPNEVAIFMFEVGDFSNIPKSAEFIQSKGHELLNSLRFNQADWTIVVRKKA	soluble on expression in E. coli	not soluble
MTEEFNESMINDIKEGDKVTGEVQQVEDKQVVVHINGGKFNGIIPISQLSTHHIENPSEVVKVGDEVEAYVTKIEFDEENDTGAYILSKRQLETEKSYEYLQEKLDNDEVIEAEVTEVVKGGLVVDVGQRGFVPASLISTDFIEDFSVFDGQTIRIKVEELDPENNRVILSRKAVEQLENDAKKASILDSLNEGDVIDGKVARLTNFGAFINIGGVDGLVHVSELSHGTCSNTRRSCVSRLEHHHHHH	soluble on expression in E. coli	soluble
MVSIKEHLEELLESFDYSGDVEERIRLLRAAIGRIGNMFYGTENEEIYADQVRRIKLRLRELRETYATSEDNWRELMDNLEELRDQIERLAIRGGIIEK	soluble on expression in E. coli	not soluble
MGSDKIHHHHHHMDRFDLGIVKVHRIEEWRGTFSPPAELFDGFSPDGWEPHAEEFAPEYYDPVSGKLFAFLQSWVLDTGTQRILFDTGAGNDKDRPNLPIFGNLQTGFLDNLAAAGFQPEDIDVVVCSHIHVDHVGWNTRLVDGRWEPTFRNARYVLPLADRAYWDPQDASAGPAGIGAAVNAGMFDDSVRPIIEAGRAEWAEDGFEVAEGLVLRSCPGHTPGSMMLEVSGGEDTAMFVGDVVHHPAQIYRPEWNSIFCEAPEDARETRRRVLDLAASREALLIPAHFGGSHMARVLRDGSGFRPVLDPMGSG	soluble on expression in E. coli	not soluble
MNINIVTIGKLKEKYLKQGIEEYTKRLSAYAKIDIIELPDEKAPENLSDQDMKIIKDKEGDRILSKISPDAHVIALAIEGKMKTSEELADTIDKLATYGKSKVTFVIGGSLGLSDTVMKRADEKLSFSKMTFPHQLMRLILVEQIYRAFRINRGEPYHKLEHHHHHH	soluble on expression in E. coli	soluble
MGHHHHHHSHMAATSGTDEPVSGELVSVAHALSLPAESYGNDPDIEMAWAMRAMQHAEVYYKLISSVDPQFLKLTKVDDQIYSEFRKNFETLRIDVLDPEELKSESAKEKWRPFCLKFNGIVEDFNYGTLLRLDCSQGYTEENTIFAPRIQFFAIEIARNREGYNKAVYISVQDKEGEKGVNNGGEKRADSGEEENTKNGGEKGADSGEEKEEGINREDKTDKGGEKGKEADKEINKSGEKAM	soluble on expression in E. coli	not soluble
